- system.name: T1, human IL-11 (human, UniProt P20809 22-199)
- T1 construct: bought from Invigate; also called hIL-11; hIL11
- T1 sequence: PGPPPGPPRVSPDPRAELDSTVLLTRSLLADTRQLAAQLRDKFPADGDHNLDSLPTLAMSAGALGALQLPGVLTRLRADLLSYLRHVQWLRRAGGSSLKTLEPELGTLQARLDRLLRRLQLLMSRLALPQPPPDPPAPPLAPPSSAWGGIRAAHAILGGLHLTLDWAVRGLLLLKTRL
- assay.explanation: SPR, antibody captured, IL-11 as analyte
Kd listing for selected binders.
Give just the number in nM; leave the unit off.

>  <binder>
TPP-19873 (antibody, V domains shown) VH: EVQLLESGGGLVQPGGSLRLSCAASGFTFSSYGMHWVRQAPGKGLEWVSVISYDGSNKYYADSVKGRFTISRDNSKNTLYLQMNSLRAEDTAVYYCAAGVPDYWGQGTLVTVSS VL: QSVLTQPPSASGTPGQRVTISCTGSSSNIGAGYDVHWYQQLPGTAPKLLIYSNNERPSGVPDRFSGSKSGTSASLAISGLRSEDEADYYCAAWDDSLNGPVFGGGTKLTVL

>  <metric.name>
Kd

>  <readout.unit>
nM

>  <value.measured>
21

$$$$
>  <binder>
TPP-19863 (antibody, V domains shown) VH: EVQLLESGGGLVQPGGSLRLSCAASGFTFSSYGMHWVRQAPGKGLEWVSAISYDGSYKYYADSVKGRFTISRDNSKNTLYLQMNSLRAEDTAVYYCAAGVPDYWGQGTLVTVSS VL: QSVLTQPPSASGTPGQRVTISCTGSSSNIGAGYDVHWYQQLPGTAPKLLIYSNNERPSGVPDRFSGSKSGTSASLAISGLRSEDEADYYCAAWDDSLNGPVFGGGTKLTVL

>  <metric.name>
Kd

>  <readout.unit>
nM

>  <value.measured>
4.7

$$$$
>  <binder>
TPP-19872 (antibody, V domains shown) VH: EVQLLESGGGLVQPGGSLRLSCAASGFTFSSYGMHWVRQAPGKGLEWVAVISYDGSYKYYADSVKGRFTISRDNSKNTLYLQMNSLRAEDTAVYYCAAGVPDYWGQGTLVTVSS VL: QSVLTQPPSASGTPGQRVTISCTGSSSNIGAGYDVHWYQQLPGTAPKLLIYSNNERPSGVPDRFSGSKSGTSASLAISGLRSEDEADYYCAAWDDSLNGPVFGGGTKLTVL

>  <metric.name>
Kd

>  <readout.unit>
nM

>  <value.measured>
5.5

$$$$

Ask: Name the recorded Kd for TPP-19874 (antibody, V domains shown) VH: EVQLLESGGGLVQPGGSLRLSCAASGFTFSSYGMHWVRQAPGKGLEWVSVISYDGSYKYYADSVKGRFTISRDNSKNTLYLQMNSLRAEDTAVYYCARGVPDYWGQGTLVTVSS VL: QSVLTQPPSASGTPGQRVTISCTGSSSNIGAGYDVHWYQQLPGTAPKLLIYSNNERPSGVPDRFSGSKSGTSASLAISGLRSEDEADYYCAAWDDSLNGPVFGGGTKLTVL .
Reply: 99
